Biological target: human ERK-2 (Mitogen Activated Kinase 1) (Homo sapiens (Human))
Sequence (P28482 8-360): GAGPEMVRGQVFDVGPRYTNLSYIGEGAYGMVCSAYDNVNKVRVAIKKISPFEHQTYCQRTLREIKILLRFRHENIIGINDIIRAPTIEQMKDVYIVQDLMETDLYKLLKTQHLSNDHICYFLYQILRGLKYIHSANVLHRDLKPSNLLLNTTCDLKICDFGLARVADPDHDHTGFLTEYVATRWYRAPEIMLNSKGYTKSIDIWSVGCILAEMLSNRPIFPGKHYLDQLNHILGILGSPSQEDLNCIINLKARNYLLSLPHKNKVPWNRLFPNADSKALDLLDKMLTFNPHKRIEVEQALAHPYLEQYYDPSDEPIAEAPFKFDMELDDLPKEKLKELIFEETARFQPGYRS
Assay: ERK-2 Enzymatic Assay
Details: human ERK-2 enzyme 5 nM, 25 μM ATP, S/T17 peptide substrate; isomer = configuration of CR2R3
pIC50: −log10 of the molar value.
Just so you know, the groups by pIC50 go like this: low range (below 8), mid range (8 to below 10), high range (10 or more)

Exam item: Textbook exercise: identify the category of the compound given here, CN1C[C@H](Cc2ccc(F)cc2)c2nnc3cc(-c4ccnc(Nc5ccnn5C)n4)cc1n23 [(S) I-31] , according to its measured value.
Marked response: high range

Exam item: What about Cn1nccc1Nc1cc(-c2cc3n4c(nnc4c2)[C@@H](Cn2cc(C(F)(F)F)cn2)CCO3)ccn1 [(R) I-89] ?
Marked response: high range

Exam item: Now consider Cn1nccc1Nc1cc(-c2cc3n4c(nnc4c2)[C@H](Cc2ccccc2)CO3)ccn1 [(S) I-38] .
Marked response: mid range

Exam item: // next record Cn1nccc1Nc1nccc(-c2cc3n4c(nnc4c2)[C@H](Cc2ccc(F)cc2)CN3)n1 [(R) I-21]
Marked response: mid range

Exam item: Again, but for CN1C(=O)C[C@@H](Cc2ccc(Cl)cc2)c2nnc3cc(-c4ccnc(Nc5ccnn5C)n4)cc1n23 [(R) I-22]
Marked response: low range

Exam item: What do we get for COc1ccc(C[C@H]2CC(=O)N(C)c3cc(-c4ccnc(Nc5ccnn5C)c4)cc4nnc2n34)c(F)c1 [(S) I-74] ?
Marked response: mid range

Exam item: Next compound up: CC(C)C[C@H]1CNc2cc(-c3ccnc(Nc4ccnn4C)n3)cc3nnc1n23 [(S) I-10]
Marked response: high range

Exam item: Can you handle CN1C[C@@H](Cc2ccccc2)c2nnc3cc(-c4ccnc(Nc5ccnn5C)n4)cc1n23 [(R) I-9] next?
Marked response: mid range

Exam item: Follow-up item: CN1C(=O)C[C@@H](CC(F)(F)F)c2nnc3cc(-c4ccnc(Nc5ccnn5C)n4)cc1n23 [(S) I-71]
Marked response: low range

Exam item: Further, for COc1ncccc1C[C@@H]1CN(C)c2cc(-c3ccnc(Nc4ccnn4C)n3)cc3nnc1n23 [(R) I-43] ?
Marked response: low range

Exam item: Now consider COc1ccc(C[C@@H]2CNc3cc(-c4ccnc(Nc5ccnn5C)n4)cc4nnc2n34)cc1F [(R) I-12] .
Marked response: mid range

Exam item: // query: CN1C(=O)C[C@@H](Cc2ccc(Cl)cc2)c2nnc3cc(-c4ccnc(Nc5ccnn5C)c4)cc1n23 [(R) I-40]
Marked response: mid range

Exam item: Now the compound Cn1nccc1Nc1nccc(-c2cc3n4c(nnc4c2)[C@@H](Oc2ccc(F)cc2)CCO3)n1 [(S) I-66]
Marked response: high range

Exam item: Likewise for Cn1nccc1Nc1nccc(-c2cc3n4c(nnc4c2)[C@@H](CCC(F)(F)F)CCO3)n1 [(S) I-102] ?
Marked response: high range

Exam item: Cn1nccc1Nc1cc(-c2cc3n4c(nnc4c2)[C@@H](Cc2ccccc2Cl)CCO3)ccn1 [(S) I-30] ?
Marked response: high range
